Origin of values: patent EP0483928A1

molecular target: UniProt:P08246; test: Inhibition of human leukocyte elastase: rate of inactivation kon and inhibition constant Ki* (koff/kon); type: biochemical
pKi: −log10 of the molar value.
parameterMeasured: pKi

- CCOP(=O)(OCC)c1cccc(C(=O)OCN2C(=O)c3c(C(C)C)cc(OC)cc3S2(=O)=O)c1: 10.19

====

target: human leukocyte elastase (HLE) (Homo sapiens); assay: Inhibition of human leukocyte elastase: rate of inactivation kon and inhibition constant Ki* (koff/kon); type: biochemical; conditions: Ki* = koff/kon, calculated from measured koff and kon; not a truly reversible Ki; read-out: K*i
Sequence (P08246 30-267): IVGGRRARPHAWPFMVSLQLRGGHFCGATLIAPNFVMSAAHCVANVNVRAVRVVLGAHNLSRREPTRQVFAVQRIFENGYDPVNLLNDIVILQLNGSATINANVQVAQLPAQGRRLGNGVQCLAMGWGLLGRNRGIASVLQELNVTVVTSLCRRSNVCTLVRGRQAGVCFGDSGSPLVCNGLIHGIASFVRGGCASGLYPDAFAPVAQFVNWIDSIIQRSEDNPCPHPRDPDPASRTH
pKi: −log10 of the molar value.
The following compounds are shown together with reported pKi values.
parameterMeasured: pKi

- CC(C)c1cccc2c1C(=O)N(COC(=O)c1ccc(Cl)cc1Cl)S2(=O)=O [Example 1AO]: 9.00
- CC(C)c1cccc2c1C(=O)N(COC(=O)c1c(Cl)ccc(S(=O)(=O)N3CCOCC3)c1Cl)S2(=O)=O [Example 1U]: 11.00
- CC(C)c1cccc2c1C(=O)N(COC(=O)c1c(Cl)ccc(OCC(=O)O)c1Cl)S2(=O)=O [Example 3]: 11.00
- COc1cc(C(C)C)c2c(c1)S(=O)(=O)N(COC(=O)c1c(F)cccc1F)C2=O [Example 1BL]: 10.37
- CC(C)c1cc(OCC2COC(C)(C)O2)cc2c1C(=O)N(COC(=O)c1c(Cl)cccc1Cl)S2(=O)=O (stereo not shown) [Example 5C]: 10.52
- CC(C)c1cccc2c1C(=O)N(COC(=O)c1cc(Cl)ccc1Cl)S2(=O)=O [Example 1M]: 9.60
- COc1cc(OC)c(C(=O)OCN2C(=O)c3c(C(C)C)cc(OC)cc3S2(=O)=O)c(OC)c1 [Example 1BO]: 10.30
- CCc1c(OC)cc(OC)c2c1C(=O)N(COC(=O)c1c(Cl)cccc1Cl)S2(=O)=O [Example 1AY]: 9.05
- COc1cc(C(C)C)c2c(c1)S(=O)(=O)N(COC(=O)c1c(OC)ccc(NC(C)=O)c1OC)C2=O [Example 1BR]: 10.24
- O=C(OCN1C(=O)c2ccccc2S1(=O)=O)c1cccc2ccccc12 [Example 1F]: 8.52
- CC(C)C1CCCC2=C1C(=O)N(COC(=O)c1c(Cl)ccc(S(=O)(=O)N(C)CCN(C)C)c1Cl)S2(=O)=O (stereo not shown) [Example 9E]: 8.70
- CC(C)c1cc(OC2CCC2)cc2c1C(=O)N(COC(=O)c1c(Cl)cccc1Cl)S2(=O)=O [Example 5G]: 10.27
- O=C(OCN1C(=O)C2=C(C3CCC2C3)S1(=O)=O)c1c(Cl)cccc1Cl (stereo not shown) [Example 8]: 9.22
- COc1ccc(Cl)c(C(=O)OCN2C(=O)c3c(C(C)C)cccc3S2(=O)=O)c1Cl [Example 1AB]: 10.80
- COc1cc(C(C)C)c2c(c1OC)S(=O)(=O)N(COC(=O)c1c(Cl)ccc(S(=O)(=O)N3CCN(C)CC3)c1Cl)C2=O [Example 1BH]: 9.22
- COc1cc(C(C)C)c2c(c1)S(=O)(=O)N(COC(=O)c1c(Cl)ccc(OCCN3CCCCC3)c1Cl)C2=O [Example 1AU]: 10.52
